System: FVB mice transgenic for HER-2/neu
method.notes: Acute oral toxicity, OECD 423 test
Type: in vivo
test.settings: 2000 mg/kg i.g.; Day 2
outcome.measure: Body weight, average (g)
Return type: number; implicit unit g.

Lookup: State the recorded Body weight, average for this entry: C[C@H]1Oc2cc(OS(N)(=O)=O)ccc2[C@H]2CC[C@]3(C)C(=O)CCC[C@H]3[C@H]21
Found: 26.3

====

System: FVB mice transgenic for HER-2/neu
method.notes: Acute oral toxicity, OECD 423 test
Type: in vivo
test.settings: 300 mg/kg single i.g. dose; Day 14
outcome.measure: Body weight, average (g)
Return type: number; implicit unit g.

Lookup: State the recorded Body weight, average for this entry: C[C@H]1Oc2cc(OS(N)(=O)=O)ccc2[C@H]2CC[C@]3(C)C(=O)CCC[C@H]3[C@H]21
Found: 29.6

====

Test system: FVB mice transgenic for HER-2/neu
method.notes: Acute oral toxicity, OECD 423 test
Type: in vivo
test.settings: 2000 mg/kg i.g.; Day 1 (before administration)
outcome.measure: Body weight, average (g)
Return type: number; implicit unit g.

Lookup: State the recorded Body weight, average for this entry: C[C@H]1Oc2cc(OS(N)(=O)=O)ccc2[C@H]2CC[C@]3(C)C(=O)CCC[C@H]3[C@H]21 [compound of formula (1)]
Found: 27.1

====

method.notes: Acute oral toxicity, OECD 423 test
Assay type: in vivo
test.settings: female, FVB transgenic for HER-2/neu, mouse, in vivo, po, oral (i.g.), OECD 423
outcome.measure: LD50 at 14 days

Lookup: State the recorded LD50 at 14 days for this entry: C[C@H]1Oc2cc(OS(N)(=O)=O)ccc2[C@H]2CC[C@]3(C)C(=O)CCC[C@H]3[C@H]21 [compound of formula (1)]
Found: ≥ 5000 mg/kg

====

Test system: FVB mice transgenic for HER-2/neu
method.notes: Acute oral toxicity, OECD 423 test
Type: in vivo
test.settings: 300 mg/kg single i.g. dose; Day 2
outcome.measure: Body weight, average

Lookup: State the recorded Body weight, average for this entry: C[C@H]1Oc2cc(OS(N)(=O)=O)ccc2[C@H]2CC[C@]3(C)C(=O)CCC[C@H]3[C@H]21
Found: 28.8 g

====

Tested on: FVB mice transgenic for HER-2/neu
method.notes: Acute oral toxicity, OECD 423 test
Type: in vivo
test.settings: 2000 mg/kg i.g.; Day 14
outcome.measure: Body weight, average (g)
Return type: number; implicit unit g.

Lookup: State the recorded Body weight, average for this entry: C[C@H]1Oc2cc(OS(N)(=O)=O)ccc2[C@H]2CC[C@]3(C)C(=O)CCC[C@H]3[C@H]21 [compound of formula (1)]
Found: 27.2

====

Test system: FVB mice transgenic for HER-2/neu
method.notes: Acute oral toxicity, OECD 423 test
Type: in vivo
test.settings: 300 mg/kg single i.g. dose; Day 1 (before administration)
outcome.measure: Body weight, average (g)
Return type: number; implicit unit g.

Lookup: State the recorded Body weight, average for this entry: C[C@H]1Oc2cc(OS(N)(=O)=O)ccc2[C@H]2CC[C@]3(C)C(=O)CCC[C@H]3[C@H]21 [compound of formula (1)]
Found: 28.7

====

System: FVB mice transgenic for HER-2/neu
method.notes: Acute oral toxicity, OECD 423 test
Assay type: in vivo
test.settings: 300 mg/kg single i.g. dose; Day 7
outcome.measure: Body weight, average
Be sure to follow the number with its unit.

Lookup: State the recorded Body weight, average for this entry: C[C@H]1Oc2cc(OS(N)(=O)=O)ccc2[C@H]2CC[C@]3(C)C(=O)CCC[C@H]3[C@H]21
Found: 29.6 g
